Experiment: In vivo pharmacokinetics and brain penetration in mice
Parameters: species or system mouse
Details: male, C57BL/6, mouse, brain, ip, 20 mg/kg, mice; 20 mg/kg intraperitoneal; 1 hour; read-out: Brain to Plasma Ratio
quantity measured: Kp at 1 h

I am curious: what Kp at 1 h value has been reported for COc1ccc(OCC(c2ccc(OC)cc2)N2Cc3ccccc3C2=O)cc1 (racemic) ?
1.57

* * *

Target: human GluN1^FA,TL/GluN3A receptors (Homo sapiens, UniProt Q8TCU5)
Construct: Human GluN3A (NP_597702.2) and rat GluN3B (NP_579842.2) were synthesized and subcloned into SP6 plasmids; expressed in transfected cells; host or cells: Xenopus laevis oocytes, cRNA injection (GluN1:GluN3 1:3)
Sequence (Q8TCU5 24-1115, other chains not shown): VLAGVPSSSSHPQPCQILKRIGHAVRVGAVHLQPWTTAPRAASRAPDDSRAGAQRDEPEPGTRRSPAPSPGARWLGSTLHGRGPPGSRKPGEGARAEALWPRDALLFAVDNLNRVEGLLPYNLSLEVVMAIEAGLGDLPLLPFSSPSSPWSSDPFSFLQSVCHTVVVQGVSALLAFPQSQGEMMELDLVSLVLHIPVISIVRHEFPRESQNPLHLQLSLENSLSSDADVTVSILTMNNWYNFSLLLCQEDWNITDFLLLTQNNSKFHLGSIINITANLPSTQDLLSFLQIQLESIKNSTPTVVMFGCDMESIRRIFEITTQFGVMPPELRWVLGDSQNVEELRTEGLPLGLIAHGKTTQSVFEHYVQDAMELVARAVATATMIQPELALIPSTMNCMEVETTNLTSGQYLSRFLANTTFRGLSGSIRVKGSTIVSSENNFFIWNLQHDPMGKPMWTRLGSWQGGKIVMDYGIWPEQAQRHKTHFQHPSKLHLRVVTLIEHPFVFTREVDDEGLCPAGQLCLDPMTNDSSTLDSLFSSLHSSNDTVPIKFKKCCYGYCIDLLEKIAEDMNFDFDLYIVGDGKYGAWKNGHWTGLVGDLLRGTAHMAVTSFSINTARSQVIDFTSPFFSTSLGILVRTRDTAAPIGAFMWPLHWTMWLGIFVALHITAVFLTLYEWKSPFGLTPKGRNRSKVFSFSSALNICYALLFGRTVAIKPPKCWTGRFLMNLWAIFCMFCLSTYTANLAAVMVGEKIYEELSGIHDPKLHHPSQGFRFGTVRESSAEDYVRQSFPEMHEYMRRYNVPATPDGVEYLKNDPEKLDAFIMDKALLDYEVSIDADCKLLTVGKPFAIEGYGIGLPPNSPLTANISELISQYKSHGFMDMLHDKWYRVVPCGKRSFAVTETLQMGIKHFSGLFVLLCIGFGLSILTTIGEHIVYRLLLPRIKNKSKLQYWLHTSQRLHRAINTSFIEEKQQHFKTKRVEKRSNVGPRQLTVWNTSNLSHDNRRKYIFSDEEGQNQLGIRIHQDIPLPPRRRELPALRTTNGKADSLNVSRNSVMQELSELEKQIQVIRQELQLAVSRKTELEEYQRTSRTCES
Assay: Two-electrode voltage-clamp recordings of GluN1^FA,TL/GluN3A receptors in Xenopus oocytes
Type: cell-based
Conditions: fitted maximum at saturating test compound, 100 × (1 − Idrug/Icontrol)
# binarize Max Inhibition: threshold 40% inclusive, high side MET, low side NOT MET

Use these answered entries as a reference point.
- compound: "COc1ccc(OCC(c2ccc(OC)cc2)N2CCc3ccccc3C2=O)cc1 (centres unmarked)"
  group: "MET"
- compound: "COc1ccc(OCC(c2ccc(OC(C)C)cc2)N2Cc3ccccc3C2=O)cc1 (centres unmarked)"
  group: "MET"
- compound: "COc1ccc(OCC(c2ccccc2)N2Cc3ccccc3C2=O)cc1 (centres unmarked)"
  group: "MET"
- compound: "COc1ccc(OCC(c2ccccc2)N2CCc3ccccc3C2=O)cc1 (centres unmarked)"
  group: "MET"

Hello, I need to know if COc1ccc(OCC(c2ccc(OC)c(OC)c2)N2Cc3ccccc3C2=O)cc1 (centres unmarked) has measured Max Inhibition not below 40%. Thanks!
NOT MET

* * *

Biological target: human GluN1^FA,TL/GluN3A receptors (Homo sapiens, UniProt Q8TCU5)
Construct: Human GluN3A (NP_597702.2) and rat GluN3B (NP_579842.2) were synthesized and subcloned into SP6 plasmids; expressed in transfected cells; host or cells: Xenopus laevis oocytes, cRNA injection (GluN1:GluN3 1:3)
Experiment: Two-electrode voltage-clamp recordings of GluN1^FA,TL/GluN3A receptors in Xenopus oocytes
Type: cell-based
Conditions: read-out: hGluN1^FA,TL/hGluN3A (100 × Idrug/Icontrol at 30 μM drug)
Consider the following compounds and their measured remaining activity at 30 µM readings.
I only need the number, in %, no unit after it.

Reference set, count: 3
- compound: "CC(C)Oc1ccc(C(COc2ccc(OC(F)(F)F)cc2)N2Cc3cc(Br)ccc3C2=O)cc1 (centres unmarked)"
  remaining activity at 30 µM [%]: 101
- compound: "Cc1cccc(OCC(c2ccc(OC(C)C)cc2)N2Cc3ccc(Br)cc3C2=O)n1 (centres unmarked)"
  remaining activity at 30 µM [%]: 93
- compound: "CC(C)Oc1ccc(C(COc2ccc(OC(F)(F)F)cc2)N2Cc3cc(F)ccc3C2=O)cc1 (centres unmarked)"
  remaining activity at 30 µM [%]: 98

I am curious: what remaining activity at 30 µM value has been reported for COc1ccc(C(COc2cccc(C)n2)N2Cc3ccc(Br)cc3C2=O)c(F)c1 (centres unmarked) ?
62

I am curious: what remaining activity at 30 µM value has been reported for CC(C)Oc1ccc(C(COc2ccc(C(F)(F)F)cc2)N2Cc3ccc(F)cc3C2=O)cc1 (centres unmarked) ?
76

I am curious: what remaining activity at 30 µM value has been reported for COc1ccc(OCC(c2ccc(OC(C)C)cc2)N2Cc3cc(Br)ccc3C2=O)cc1 (centres unmarked) ?
98

I am curious: what remaining activity at 30 µM value has been reported for COc1ccc(C(COc2cccc(C)n2)N2Cc3cc(Cl)ccc3C2=O)c(F)c1 (centres unmarked) ?
81

I am curious: what remaining activity at 30 µM value has been reported for COc1ccc(OCC(c2c(F)cc(OC)cc2F)N2Cc3cc(Br)ccc3C2=O)cc1 (centres unmarked) ?
95
